Data provenance: patent US20110045101A1

Exercise: state measured pest or weed control at 200 ppm for each of the molecules provided.
# Test system: Alternaria solani
# assay.procedure: Test D: tomato early blight, sprayed the day before inoculation, visual disease rating
# Assay type: in vivo
# run.conditions: Alternaria solani, 168 h; 200 ppm; 100 = 100% disease control, 0 = no control relative to controls
// return numeric value only (unit: %, not printed)

Problem: Give reported pest or weed control at 200 ppm value for Cc1nn(C)c(Cc2ccc(F)cc2F)c1-c1ccc(F)cc1Cl
Result: 100

Problem: Provide pest or weed control at 200 ppm value for the following molecule: Fc1cccc(F)c1-c1c(Br)nc(CCBr)n1-c1ccc(Cl)cc1
Result: 26

Problem: Check the records and state pest or weed control at 200 ppm for COc1ccc(F)c(-c2c(Br)nc(Br)n2-c2ccc(F)cc2)c1F
Result: 100

Problem: Annotate the molecule Cn1nc(Br)c(-c2c(F)cccc2F)c1-c1ccc(Cl)cc1 with its measured pest or weed control at 200 ppm.
Result: 100

Problem: Indicate the recorded pest or weed control at 200 ppm value for this molecule: Cc1ncc(-c2ccc(F)cc2)n1-c1ccc(Cl)cc1
Result: 0

Problem: Provide only the value of recorded pest or weed control at 200 ppm for Cc1nn(C)c(-c2c(F)cccc2F)c1-c1cccc(F)c1
Result: 0

Problem: Identify pest or weed control at 200 ppm associated with the molecule Fc1cc(F)c(-c2c(Cl)nc(Cl)n2-c2ccc(Cl)cc2)c(F)c1
Result: 100

Problem: Give recorded pest or weed control at 200 ppm. COc1ccc(F)c(-c2c(Br)ncn2-c2ccc(F)cc2)c1F
Result: 100

Problem: Provide only the value of recorded pest or weed control at 200 ppm for Cc1ccc(-n2c(C)nc(Cl)c2-c2c(F)cc(O)cc2F)cc1
Result: 64

Problem: Input N#Cc1nc(Cl)c(-c2c(F)ccc(F)c2F)n1-c1ccc(Cl)cc1 , output reported pest or weed control at 200 ppm.
Result: 99

Problem: Give recorded pest or weed control at 200 ppm. O=C(O)Cc1nc(Br)c(-c2c(F)cccc2F)n1-c1ccc(Cl)cc1
Result: 0

Problem: Provide pest or weed control at 200 ppm value for the following molecule: Fc1ccc(-c2c(Cl)nnn2-c2ccc(Cl)cc2)c(F)c1
Result: 0

Problem: Give the reported pest or weed control at 200 ppm for this molecule. COc1cc(F)c(-c2c(Cl)nc(C=NO)n2-c2ccc(F)cc2)c(F)c1
Result: 99

Problem: Supply measured pest or weed control at 200 ppm of Fc1cccc(F)c1-c1c(Cl)nc(Cl)n1-c1ccc(Cl)cc1 in your reply.
Result: 100

Problem: Using known records, supply pest or weed control at 200 ppm for N#Cc1ccc(F)c(-c2c(Cl)ncn2-c2ccc(Cl)cc2)c1F
Result: 100

Problem: # return recorded pest or weed control at 200 ppm for entry COc1cc(F)c(-c2c(Cl)nc(C)n2-c2ccc(C(F)(F)F)nc2)c(F)c1
Result: 100

Problem: Consider the molecule CNC(=O)Cc1nc(Br)c(-c2c(F)cccc2F)n1-c1ccc(Cl)cc1 and give its recorded pest or weed control at 200 ppm.
Result: 0

Problem: Identify pest or weed control at 200 ppm associated with the molecule COC(=O)Cc1nc(Br)c(-c2c(F)cccc2F)n1-c1ccc(Cl)cc1
Result: 98

Problem: Return pest or weed control at 200 ppm (reported value) for this molecule: COc1cc(OC)cc(-n2cnc(C)c2-c2c(F)cc(OC)cc2F)c1
Result: 100

Problem: Please report the measured pest or weed control at 200 ppm for COc1ccc(F)c(-c2c(C)nc(C)n2-c2ccc(F)cc2)c1F
Result: 100

Problem: State its pest or weed control at 200 ppm for this molecule: Cc1nc(Cl)c(-c2c(F)ccc(C#N)c2F)n1-c1ccc(Cl)cc1
Result: 100

###

# System: Botrytis cinerea
# assay.procedure: Test C: tomato Botrytis on tomato seedlings, sprayed the day before inoculation, visual disease rating
# Assay type: in vivo
# run.conditions: 40 ppm (marked *); 100 = 100% disease control, 0 = no control
Marks after values point to notes of the source that are not given here.
property.name: Test C disease control rating

Problem: Please report Test C disease control rating with Botrytis cinerea for item C=Cc1nc(C)n(-c2ccc(Cl)cc2)c1-c1c(F)cccc1F .
Result: 33* %

Problem: Using Botrytis cinerea as the test system, report measured Test C disease control rating of CCc1nc(C)n(-c2ccc(Cl)cc2)c1-c1c(F)cccc1F .
Result: 63* %

Problem: Report its Test C disease control rating with Botrytis cinerea as the test system: COc1cc(F)c(-n2cnc(Br)c2-c2ccc(Cl)cc2)c(F)c1
Result: 98* %

Problem: Check Botrytis cinerea data and give Test C disease control rating for Fc1cccc(F)c1-c1c(Cl)nc(Br)n1-c1ccc2ncccc2c1 .
Result: 99* %

Problem: Report measured Test C disease control rating on Botrytis cinerea; entry: COc1cc(F)c(-n2c(Br)nc(Br)c2-c2ccc(Cl)cc2)c(F)c1
Result: 99* %

###

# System: Alternaria solani
# assay.procedure: Test D: tomato early blight, sprayed the day before inoculation, visual disease rating
# Format: in vivo
# run.conditions: 40 ppm (marked *); 100 = 100% disease control
Marks after values point to notes of the source that are not given here.
Would you mind telling me the reported Test D disease control rating of each entry?

Problem: Quick one: give measured Test D disease control rating for COc1cc(F)c(-n2c(Cl)nc(C)c2-c2cccc(F)c2)c(F)c1
Result: 100* %

Problem: Given the compound COc1cc(F)c(-c2c(Cl)nc(C)n2-c2ccc(C)c(C#N)c2)c(F)c1 , write its reported Test D disease control rating.
Result: 100* %

Problem: State its Test D disease control rating for this compound: COc1cc(F)c(-c2c(Br)nc(Br)n2-c2ccc(C)cc2)c(F)c1
Result: 100* %

Problem: # return recorded Test D disease control rating for input COc1cc(F)c(-c2c(C)nc(C)n2-c2ccc(Cl)c(F)c2)c(F)c1
Result: 100* %

Problem: Assign Test D disease control rating to the following record: COc1cc(F)c(-n2c(Br)nc(C)c2-c2cccc(F)c2)c(F)c1
Result: 100* %

Problem: Give Test D disease control rating for Cc1nc(Cl)n(-c2ccc(Cl)c(F)c2)c1-c1c(F)ccc(F)c1Cl
Result: 99* %

###

# Tested on: Septoria tritici
# assay.procedure: Test G: wheat leaf blotch on wheat seedlings, sprayed the day before inoculation, visual disease rating
# Assay type: in vivo
# run.conditions: 200 ppm; 100 = 100% disease control, 0 = no control relative to controls
Answer FALSE if Test G disease control rating is under 90%, and TRUE if it is 90% or more.

Problem: Hi, just wondering whether COc1ccc(F)c(-c2c(Cl)nc(Br)n2-c2ccc(Cl)nc2)c1F shows Test G disease control rating of 90% or higher.
Result: TRUE

Problem: Reported Test G disease control rating at or above 90%? Fc1cc(-n2c(Cl)nc(CCl)c2-c2cccnc2Cl)ccc1Cl
Result: FALSE

Problem: Given Fc1cc(F)c(-c2c(Cl)nc(Cl)n2-c2ccc(OC(F)(F)F)cc2)c(F)c1 , state whether its Test G disease control rating is at least 90%.
Result: TRUE

Problem: For this compound, is measured Test G disease control rating 90% or higher? COc1cc(F)c(-c2c(Cl)nc(Cl)n2Cc2ccc(Cl)nc2)c(F)c1Cl
Result: TRUE

Problem: Hi, just wondering whether COc1ccc(F)c(-c2c(Cl)nc(Br)n2-c2ccc(Cl)c(C)c2)c1F shows Test G disease control rating of 90% or higher.
Result: TRUE

Problem: Answer whether Test G disease control rating of COc1ccc(F)c(-c2c(Cl)nc(Br)n2-c2ccc(I)cc2)c1F is greater than or equal to 90%.
Result: TRUE

Problem: Answer whether Test G disease control rating of Cc1ccc(-n2cnc(Cl)c2-c2c(F)ccc(F)c2F)cc1 is greater than or equal to 90%.
Result: FALSE

Problem: # bool: Test G disease control rating of COc1cc(Cl)c(-c2c(Cl)nc(Cl)n2-c2ccc(Cl)c(F)c2)c(Cl)c1 >= 90%
Result: TRUE

Problem: Check if Test G disease control rating >= 90% (inclusive). Item: Cc1nn(C)c(-c2c(F)cc(F)cc2F)c1-c1cccc(F)c1
Result: FALSE

Problem: Could you tell me if the measured Test G disease control rating of Cc1ncn(-c2c(F)cc(F)cc2F)c1-c1ccc(Cl)cc1 reaches 90% or more?
Result: FALSE

Problem: Assess whether reported Test G disease control rating for COc1cc(F)c(-c2c(Br)nnn2-c2ccc(Cl)cc2)c(F)c1 sits at 90% or higher.
Result: TRUE

Problem: Check if Test G disease control rating >= 90% (inclusive). Item: Cc1nc(Cl)c(-c2c(F)cccc2F)n1-c1ccc(F)cc1
Result: TRUE

Problem: Has COc1cc(F)c(-c2c(Cl)nc(Cl)n2-c2ccc(Cl)nc2)c(F)c1 a recorded Test G disease control rating greater than or equal to 90%?
Result: TRUE

Problem: Check the entry COc1cc(F)c(-c2cnc(Cl)n2-c2ccc(C(F)(F)F)nc2)c(F)c1 : does Test G disease control rating equal or exceed 90%?
Result: TRUE

Problem: Is the recorded value of Test G disease control rating equal to or greater than 90% for this compound? COc1cc(F)c(-c2c(Cl)ncn2Cc2ccc(Cl)nc2)c(F)c1
Result: TRUE

Problem: Is Test G disease control rating at least 90%? Consider COc1ccc(-n2c(Br)nc(C)c2-c2c(F)cccc2F)cn1
Result: TRUE

Problem: # bool: Test G disease control rating of Cc1nn(C)c(-c2c(F)cc(F)cc2F)c1-c1ccc(Cl)c(F)c1 >= 90%
Result: FALSE

Problem: Decide: is the reported value of Test G disease control rating for Cc1cc(C)nc(-c2cnnn2-c2cc(Cl)cc(Cl)c2)n1 equal to or greater than 90%?
Result: FALSE
